method_notes: Cytotoxicity against human MT4 assessed as cell viability after 2 days
Assay type: cell-based
experimental_context: MT4 cells, read-out: TD50
readout_name: CC50 at 48 h (µM)
Give the value in µM but do not write µM after it.

Some molecules with recorded CC50 at 48 h:
{"columns": ["structure_smiles", "observed_measurement"],
 "data": [
  ["C=C(C)[C@@H]1CC[C@]2(C(=O)NCCCCCCCNC(=O)[C@H](CCC(N)=O)NC(=O)OC(C)(C)C)CC[C@]3(C)[C@H](CC[C@@H]4[C@@]5(C)CC[C@H](O)C(C)(C)[C@@H]5CC[C@]43C)[C@@H]12", 7.4],
  ["CC(C)[C@@H]1CC[C@]2(C(=O)NCCCCCCCCC(=O)N[C@@H](CCC(N)=O)C(=O)O)CC[C@]3(C)[C@H](CC[C@@H]4[C@@]5(C)CC[C@H](O)C(C)(C)[C@@H]5CC[C@]43C)[C@@H]12", 18.6]
]}

Q: Data request, read-out CC50 at 48 h, for "C=C(C)[C@@H]1CC[C@]2(C(=O)NCCCCCCCCC(=O)N[C@@H](CCC(N)=O)C(=O)OC)CC[C@]3(C)[C@H](CC[C@@H]4[C@@]5(C)CC[C@H](O)C(C)(C)[C@@H]5CC[C@]43C)[C@@H]12"
Ans: 4.8

---

method_notes: Cytotoxicity against human TZM-bl assessed as cell viability at 4 uM after 2 days
Type: cell-based
experimental_context: 48 h

{"columns": ["structure_smiles", "Activity"],
 "data": [
  ["C=C(C)[C@@H]1CC[C@]2(C(=O)NCCOCCOCCNC(=O)Cc3nnn[nH]3)CC[C@]3(C)[C@H](CC[C@@H]4[C@@]5(C)CC[C@H](O)C(C)(C)[C@@H]5CC[C@]43C)[C@@H]12", "Non-toxic"],
  ["CC(C)[C@@H]1CC[C@]2(C(=O)NCCCCCCCCC(=O)N[C@@H](CCC(N)=O)C(=O)O)CC[C@]3(C)[C@H](CC[C@@H]4[C@@]5(C)CC[C@H](O)C(C)(C)[C@@H]5CC[C@]43C)[C@@H]12", "Non-toxic"]
]}

---

System: Human immunodeficiency virus 1
method_notes: Antiviral activity against HIV1 NL4-3 infected in human TZM-bl cells assessed as reduction in luciferase gene expression by luminescence assay
Format: functional, organism-based
experimental_context: Human immunodeficiency virus 1, NL4-3, TZM-bl
Recorded measurements of EC50, one per entry
Quote the value and follow it with the unit of measurement.

{"columns": ["molecule", "EC50"],
 "data": [
  ["C=C(C)[C@@H]1CC[C@]2(C(=O)NCCCCC/C=C/C(=O)NCC(=O)O)CC[C@]3(C)[C@H](CC[C@@H]4[C@@]5(C)CC[C@H](O)C(C)(C)[C@@H]5CC[C@]43C)[C@@H]12", "150 nM"],
  ["CC(C)[C@@H]1CC[C@]2(C(=O)NCCCCCCCCC(=O)N[C@@H](CCC(N)=O)C(=O)O)CC[C@]3(C)[C@H](CC[C@@H]4[C@@]5(C)CC[C@H](O)C(C)(C)[C@@H]5CC[C@]43C)[C@@H]12", "40 nM"],
  ["COC(=O)[C@H](CCC(N)=O)NC(=O)CCCCCCCCNC(=O)[C@]12CC[C@@H](C(C)C)[C@@H]1[C@H]1CC[C@@H]3[C@@]4(C)CC[C@H](O)C(C)(C)[C@@H]4CC[C@@]3(C)[C@]1(C)CC2", "50 nM"]
]}

Q: Data request, read-out EC50, for C=C(C)[C@@H]1CC[C@]2(C(=O)NCCCCCCCCNC(=O)C(CCC#N)NC(=O)OC(C)(C)C)CC[C@]3(C)[C@H](CC[C@@H]4[C@@]5(C)CC[C@H](O)C(C)(C)[C@@H]5CC[C@]43C)[C@@H]12 (some centres undefined)
Ans: 80 nM

These entries and their values trace back to ChEMBL document CHEMBL2057155.
